The reported numbers originate from patent US3960845A.

Target or system E. coli NIHJ: recorded MIC listed per item.
Output spec: scalar in µg/mL, unitless text.

Query: May I ask what MIC has been recorded for `CO[C@@]1(NC(=O)CSc2nnc[nH]2)C(=O)N2C(C(=O)O)=C(COC(N)=O)CS[C@@H]21` ?
Reply: 6.2

Query: Consider next the molecule `CO[C@@]1(NC(=O)CSc2nncs2)C(=O)N2C(C(=O)O)=C(COC(N)=O)CS[C@@H]21` in the same way.
Reply: 3.1

Query: Consider next the molecule `CO[C@@]1(NC(=O)CSc2nnc(C)s2)C(=O)N2C(C(=O)O)=C(COC(N)=O)CS[C@@H]21` in the same way.
Reply: 6.2

Query: Consider next the molecule `CO[C@@]1(NC(=O)CSc2nncs2)C(=O)N2C(C(=O)O)=C(CSc3nnnn3C)CS[C@@H]21` in the same way.
Reply: 1.5

Query: Consider next the molecule `C#CCSCC(=O)N[C@]1(OC)C(=O)N2C(C(=O)O)=C(CSc3nnnn3C)CS[C@@H]21` in the same way.
Reply: 3.1

Query: Consider next the molecule `CO[C@@]1(NC(=O)CSc2nnc(C)s2)C(=O)N2C(C(=O)O)=C(CSc3nnnn3C)CS[C@@H]21` in the same way.
Reply: 12.5

Query: Consider next the molecule `CO[C@@]1(NC(=O)CSc2ncc[nH]2)C(=O)N2C(C(=O)O)=C(CSc3nnnn3C)CS[C@@H]21` in the same way.
Reply: 6.2

Query: Consider next the molecule `CO[C@@]1(NC(=O)CSCC#N)C(=O)N2C(C(=O)O)=C(COC(C)=O)CS[C@@H]21` in the same way.
Reply: 1.5
